target_or_test_system: Interleukin-23 receptor (Homo sapiens)
Sequence (Q5VWK5 whole entry): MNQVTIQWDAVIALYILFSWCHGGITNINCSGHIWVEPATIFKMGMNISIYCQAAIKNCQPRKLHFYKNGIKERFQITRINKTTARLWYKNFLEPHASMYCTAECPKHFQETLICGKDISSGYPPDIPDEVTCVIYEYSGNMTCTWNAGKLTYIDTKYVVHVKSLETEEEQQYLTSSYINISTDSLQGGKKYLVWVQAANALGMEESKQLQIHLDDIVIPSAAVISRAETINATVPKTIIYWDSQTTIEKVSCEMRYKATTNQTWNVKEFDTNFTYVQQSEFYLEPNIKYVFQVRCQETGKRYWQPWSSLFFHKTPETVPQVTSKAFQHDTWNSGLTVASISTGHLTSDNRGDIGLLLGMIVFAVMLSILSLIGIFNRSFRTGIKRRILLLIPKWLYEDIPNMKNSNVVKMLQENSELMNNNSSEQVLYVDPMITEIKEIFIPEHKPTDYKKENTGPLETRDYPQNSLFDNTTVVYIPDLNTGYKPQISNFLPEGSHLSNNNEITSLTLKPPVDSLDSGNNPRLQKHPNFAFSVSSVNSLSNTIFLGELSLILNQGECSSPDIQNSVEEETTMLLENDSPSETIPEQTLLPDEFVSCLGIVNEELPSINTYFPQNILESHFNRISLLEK
test_summary: Inhibition of interleukin-23 binding to human interleukin-23 receptor incubated for 2 hrs by competitive binding ELISA
Where a SMILES comes first, the peptide text is derived from it.
reported_endpoint: IC50

1) CC(C)[C@H](NC(=O)[C@H](Cc1cccc2ccccc12)NC(=O)[C@H](CC(=O)O)NC(=O)[C@H](C)NC(=O)[C@@H](N)CS)C(=O)N[C@@H](CS)C(=O)N[C@@H](Cc1ccc(O)cc1)C(=O)N[C@@H](Cc1c[nH]c2ccccc12)C(=O)N[C@@H](Cc1cnc[nH]1)C(=O)N[C@H](C(=O)N[C@@H](Cc1ccccc1)C(=O)NCC(N)=O)[C@@H](C)O ... > 1000 nM
2) COc1ccc(C[C@H](NC(=O)[C@@H](NC(=O)[C@H](CCC(N)=O)NC(=O)[C@H](Cc2c[nH]c3ccccc23)NC(=O)[C@@H](NC(=O)[C@H](CCC(N)=O)NC(=O)[C@@H](NC(C)=O)C(C)(C)S)[C@@H](C)O)C(C)(C)S)C(=O)N[C@@H](Cc2cccc3ccccc23)C(=O)N[C@@](C)(CCCCN)C(=O)N[C@@H](CCCCNC(C)=O)C(=O)N[C@@H](CC(N)=O)C(=O)NCC(N)=O)cc1 ... 25 to 100 nM
3) C[C@@H](O)[C@H](NC(=O)[C@H](CCCNC(=N)N)NC(=O)[C@@H](N)CS)C(=O)N[C@@H](Cc1c[nH]c2ccccc12)C(=O)N[C@@H](CCC(N)=O)C(=O)N[C@@H](CS)C(=O)N[C@@H](Cc1ccc(O)cc1)C(=O)N[C@@H](Cc1c[nH]c2ccccc12)C(=O)N[C@@H](CCCNC(=N)N)C(=O)N[C@@H](CCCCN)C(=O)N[C@@H](Cc1ccccc1)C(=O)NCC(N)=O (H-CRTWQCYWRKFG-NH2) ... < 500 nM
4) C[C@@H](O)[C@H](NC(=O)[C@H](CCC(=O)O)NC(=O)[C@@H](N)CS)C(=O)N[C@@H](Cc1c[nH]c2ccccc12)C(=O)N[C@@H](CCC(=O)O)C(=O)N[C@@H](CS)C(=O)N[C@@H](Cc1ccc(O)cc1)C(=O)N[C@@H](Cc1c[nH]c2ccccc12)C(=O)N[C@@H](Cc1cnc[nH]1)C(=O)N[C@@H](CO)C(=O)N[C@@H](Cc1ccccc1)C(=O)N[C@@H](CO)C(N)=O (H-CETWECYWHSFS-NH2) ... > 1000 nM
5) CC(C)[C@H](NC(=O)[C@H](Cc1c[nH]c2ccccc12)NC(=O)[C@H](CC(=O)O)NC(=O)[C@H](CS)NC(=O)[C@H](C)N)C(=O)N[C@@H](CS)C(=O)N[C@@H](Cc1ccc(O)cc1)C(=O)N[C@@H](Cc1c[nH]c2ccccc12)C(=O)N[C@@H](Cc1cnc[nH]1)C(=O)N[C@H](C(=O)N[C@@H](Cc1ccccc1)C(=O)NCC(N)=O)[C@@H](C)O ... > 1000 nM

Give the measured IC50 of CC(C)[C@H](NC(=O)[C@H](Cc1cnc[nH]1)NC(=O)[C@H](Cc1c[nH]c2ccccc12)NC(=O)[C@H](Cc1ccc(O)cc1)NC(=O)[C@H](CS)NC(=O)[C@@H](NC(=O)[C@H](Cc1c[nH]c2ccccc12)NC(=O)[C@@H](NC(=O)[C@H](CCCNC(=N)N)NC(=O)[C@@H](N)CS)[C@@H](C)O)C(C)C)C(=O)N[C@@H](Cc1ccccc1)C(=O)NCC(N)=O (H-CRTWVCYWHVFG-NH2) .
> 1000 nM

Item under review: CC(=O)N[C@@H](CS)C(=O)N[C@@H](CCC(N)=O)C(=O)N[C@H](C(=O)N[C@@H](Cc1c[nH]c2ccccc12)C(=O)N[C@@H](CCC(N)=O)C(=O)N[C@@H](CS)C(=O)N[C@@H](Cc1ccc(O)cc1)C(=O)N[C@@H](Cc1c[nH]c2ccccc12)C(=O)N[C@@H](CCCNC(=N)N)C(=O)N[C@@H](CCCNC(=N)N)CC(=O)N[C@H](C(=O)N[C@@H](CC(N)=O)C(=O)NCC(=O)NCCOCC(=O)N[C@H](CCCCN)C(N)=O)C(C)C)[C@@H](C)O . Reported IC50?
922 nM

Could you share which IC50 value was measured for CC(=O)N[C@@H](CS)C(=O)N[C@@H](CCC(N)=O)C(=O)N[C@H](C(=O)N[C@@H](Cc1c[nH]c2ccccc12)C(=O)N[C@@H](CCC(N)=O)C(=O)N[C@@H](CS)C(=O)N[C@@H](Cc1ccc(O)cc1)C(=O)N[C@@H](Cc1c[nH]c2ccccc12)C(=O)N[C@@H](CCCNC(=N)N)C(=O)N[C@H](CCC(=O)O)C(=O)N[C@@H](CC(N)=O)C(=O)NCC(=O)NCCOCC(=O)N[C@H](CCCCN)C(N)=O)[C@@H](C)O ?
> 1000 nM

Entry CC(=O)N[C@@H](CS)C(=O)N[C@@H](CCCNC(=N)N)C(=O)N[C@H](C(=O)N[C@@H](Cc1c[nH]c2ccccc12)C(=O)N[C@@H](CCC(N)=O)C(=O)N[C@@H](CS)C(=O)N[C@@H](Cc1ccc(O)cc1)C(=O)N[C@@H](Cc1c[nH]c2ccccc12)C(=O)N[C@@H](CCCNC(=N)N)C(=O)N[C@@H](CCCCN)C(=O)N[C@@H](Cc1ccccc1)C(=O)NCC(=O)NCCOCC(=O)N[C@H](CCCCN)C(N)=O)[C@@H](C)O : reported IC50 = ?
< 500 nM

Suppose we examine the compound CC(=O)NCCOc1ccc(C[C@H](NC(=O)[C@@H](NC(=O)[C@H](CCC(N)=O)NC(=O)[C@H](Cc2c[nH]c3ccccc23)NC(=O)[C@@H](NC(=O)[C@H](CCC(N)=O)NC(=O)[C@@H](NC(C)=O)C(C)(C)S)[C@@H](C)O)C(C)(C)S)C(=O)N[C@@H](Cc2ccc3ccccc3c2)C(=O)N[C@@](C)(CC(C)C)C(=O)N[C@@H](CCC(N)=O)C(=O)N[C@@H](CC(N)=O)C(=O)N[C@@H](CC(N)=O)C(N)=O)cc1 ; what IC50 value has been reported?
< 10 nM
